System: IGROV1 ovarian
Assay: NCI-60 one-dose screen, 48 h (100 = growth as untreated, 0 = no growth, -100 = all killed)
Conditions: 10 µM unless noted
The panel holds about 83,000 compounds, 20% with a hit somewhere; the sample as a whole holds those more often.
Documented growth across a set of compounds
Note: unit % is implicit; provide only the numeric part.

Known growth results, listed for orientation:
CC1CCN(C(=O)CSc2nc3sc4c(c3c(=O)[nH]2)CCCC4)CC1	87.7
Cc1ccc(S(=O)(=O)N2CCC(C(=O)Nc3ccc(F)cc3F)CC2)cc1	-38.5
CCC(=O)Oc1cc(/C=C/C(=O)O[C@H]2C[C@H]3CN4CCc5c([nH]c6cc(OC)ccc56)[C@@H]4C[C@@H]3[C@@H](C(=O)OC)[C@@H]2OC)ccc1OC	88.5
CCc1c(C(=O)Nc2ccc3ccccc3c2)[nH]c(C)c1C(C)=O	108
O=S(=O)(NCCCNc1cc(-c2cn(-c3ccccc3)nc2-c2cccc(O)c2)ccn1)c1ccc(C(F)(F)F)cc1	58.9

Field growth (entry O=C(O)C(Cc1ccccc1)N1C(=O)/C(=C/C(Cl)=C/c2ccc([N+](=O)[O-])cc2)SC1=S (stereo not drawn) ) reads 36.3

compound COc1cc(C2C3=C(COC3=O)Nc3c2ccc2c3CCCC2)cc2c1OCO2 (stereo not drawn) , growth observed: 44.7

Sure, the documented growth for O=S(=O)(NCCNc1cc(-c2cn(-c3ccccc3)nc2-c2ccccc2)ccn1)c1cccc2ccccc12 is 63.1

growth measured on CCC(=O)Oc1ccc2c(c1)CC[C@@H]1[C@@H]2CC[C@]2(C)C[C@H](OC(=O)CC)C[C@@H]12 = 77.6

The recorded growth for entry Cc1ccc(S(=O)(=O)NCCCNc2nccc(-c3c(-c4ccccc4)nc4sccn34)n2)cc1 equals 35.7

The compound listed as CCOP(=O)(CCN1CCN(CCCCCOc2cc3c(cc2OC)C(=O)N2CCC[C@H]2C=N3)CC1)OCC has a reported growth of -26

Entry under test: COc1cc(/C=C/C(=O)c2ccc(NC(=O)CN3CCN(c4cc5c(cc4F)c(=O)c(C(=O)O)cn5C4CC4)CC3)cc2)cc(OC)c1OC . Its growth was -1.19

Lookup result for COc1cc2nc(N3CCC[C@@H](NC4=CC(=O)c5ccccc5C4=O)C3)nc(N)c2cc1OC ; measured growth: -82.3

According to the records, this compound CNC(=O)Cc1nc(-c2cccc(NS(=O)(=O)c3c(F)cccc3F)c2F)c(-c2ccnc(Nc3ccccc3)n2)s1 displays growth of 17.5

Form field growth, entry COc1ccc(/C=c2\sc3n(c2=O)C2C(NN=3)N(C)C(=O)N2C)cc1 (stereo not drawn) : 40

Reported growth for Cc1nc2scc(-c3ccccc3)n2c(=O)c1CCO was 98.1

Please fill in: growth reported for COc1cc(/C=C\c2cc(OC)c(OC)c(OC)c2)cc(N/C=C\C(=O)c2c[nH]c3ccccc23)c1OC = 40.5

Quick note, growth for COc1ccc(/C=C/C(=O)c2ccc(B(O)O)cc2)cc1O landed at 56.2

Note to self: growth recorded for CC(=O)Nc1nc(C(=O)N2N=C(C)/C(=C/c3cccs3)C2=O)cs1 was 97.1

Briefly, growth measured for Cc1nc2sccn2c1-c1csc(Nc2ccccc2Cl)n1 : 60.5

* * *

Test system: SK-MEL-5 melanoma
Assay: NCI-60 one-dose screen, 48 h (100 = growth as untreated, 0 = no growth, -100 = all killed)
Conditions: 10 µM unless noted
The panel holds about 83,000 compounds, 20% with a hit somewhere; the sample as a whole holds those more often.
Exam item: assign 1.0 to entries whose growth is below 90% and 0.0 to entries at or above 90%. Note that a value of exactly 90% receives 0.0.

CCN1C(=O)N(CC)C2C1NN=c1s/c(=C\c3cccc(F)c3)c(=O)n12 (centres undefined)	1.0
COc1ccc(/C(=N/O)c2cc(OC)c(OC)c(OC)c2)c(OC)c1N	1.0

**Query** State whether 90% exceeds growth recorded for Clc1ccc([I+]c2ccc(Cl)cc2Cl)c(Cl)c1 .
**Result** 0.0

**Query** A record lists COC(=O)CC/C(C)=N\Nc1ccc([N+](=O)[O-])cc1 . Is its growth below 90%?
**Result** 1.0
